assay: Cytotoxicity against mouse 3T3L1 cells at 5.2 uM; assay type: cell-based; conditions: 3T3-L1 cells, read-out: INH

>  <query_smiles>
C#CC[C@@H]1C(=O)N[C@H]([C@H](O)C(C)C)C(=O)N[C@H]([C@@H](C)CC)C(=O)N(C)[C@@H](C)C(=O)N(C)[C@@H](CC(C)C)C(=O)N[C@@H](CC(C)C)C(=O)N(C)[C@@H](C)C(=O)N1C

>  <cytotoxicity at 5.2 µM / %>
54

$$$$

Numbers sourced from ChEMBL document CHEMBL1139275.
